target: SARS-CoV-2 spike on live SARS-CoV-2 virus (SARS-CoV-2, UniProt P0DTC2 14-1273); assay: cell-based or functional assay
The reader will find reported EC80 values listed item by item below.
Quantity name: EC80 (µg/mL)

{"Binder": "variant 6-44 (Fc fusion) VHH: EVQLVESGGGLVQPGGSLRLSCAASGGTFGVYHMGWFRQAPGKEREFIGRITWTDGSTYYADSVKGRFTISADNSKNTAYLQMNSLKPEDTAVYYCFGLLEVYDMTFDYWGQGTLVTVSS", "Reported measurement": 3.16}
{"Binder": "variant 6-82 (Fc fusion) VHH: EVQLVESGGGLVQPGGSLRLSCAASGSSLDAYGMGWFRQAPGKEREFVAAISWGGGSIYYADSVKGRFTISADNSKNTAYLQMNSLKPEDTAVYYCARLSQGMVALDYWGQGTLVTVSS", "Reported measurement": 108}
{"Binder": "variant 5-56 (Fc fusion) VHH: EVQLVESGGGLVQPGGSLRLSCAASGRTFSSNMGWFRQAPGKEREFVARIFGGDRTLYADSVKGRFTISADNSKNTAYLQMNSLKPEDTAVYYCADINGDWGQGTLVTVSS", "Reported measurement": 105}
{"Binder": "variant 6-91 (Fc fusion) VHH: EVQLVESGGGLVQPGGSLRLSCAASGRTFGNYAMGWFRQAPGKEREFVASISSSGVSKHYADSVKGRFTISADNSKNTAYLQMNSLKPEDTAVYYCVRFGSSWARDLDQWGQGTLVTVSS", "Reported measurement": 240}
{"Binder": "variant 5-51 (Fc fusion) VHH: EVQLVESGGGLVQPGGSLRLSCAASGRPNSINWMGWFRQAPGKERQFVATITPGGNTNYADSVKGRFTISADNSKNTAYLLMNSLKPEDTAVYYCAAAAGTTWYGTLYEYDWGQGTLVTVSS", "Reported measurement": 388}
{"Binder": "variant 5-38 (Fc fusion) VHH: EVQLVESGGGLVQPGGSLRLSCAASGRTFSMHAMGWFRQAPGKERELVASISSQGRTNYADSVKGRFTISADNSKNTAYLQMNSLKPEDTAVYYCAAEVRNGSDYLPIDWGQGTLVTVSS", "Reported measurement": 1.5}
{"Binder": "variant 6-24 (Fc fusion) VHH: EVQLVESGGGLVQPGGSLRLSCAASGFTLDYYAMGWFRQAPGKEREFVAAINWSGDNTHYADSVKGRFTISADNSKNTAYLQMNSLKPEDTAVYYCARAPFYCTTTKCQDNYYYMDVWGQGTLVTVSS", "Reported measurement": 31.4}
{"Binder": "variant 6-45 (Fc fusion) VHH: EVQLVESGGGLVQPGGSLRLSCAASGNMFSINAMGWFRQAPGKEREFVTLISWSSGRTSYADSVKGRFTISADNSKNTAYLQMNSLKPEDTAVYYCASLGYCSGGSCFDYWGQGTLVTVSS", "Reported measurement": 4.02}
{"Binder": "variant 6-42 (Fc fusion) VHH: EVQLVESGGGLVQPGGSLRLSCAASGDTYGSYWMGWFRQAPGKEREFVAVITSGGSTNYADSVKGRFTISADNSKNTAYLQMNSLKPEDTAVYYCTHVQNSYYYAMDVWGQGTLVTVSS", "Reported measurement": 0.734}
{"Binder": "variant 6-6 (Fc fusion) VHH: EVQLVESGGGLVQPGGSLRLSCAASGTTLDYYAMGWFRQAPGKERELVAAISWSGGSTAYADSVKGRFTISADNSKNTAYLQMNSLKPEDTAVYYCAREDYYDSSGYSWGQGTLVTVSS", "Reported measurement": 24.4}
{"Binder": "variant 6-32 (Fc fusion) VHH: EVQLVESGGGLVQPGGSLRLSCAASGFTLDYYDMGWFRQAPGKEREFVALISWSGGSTYYADSVKGRFTISADNSKNTAYLQMNSLKPEDTAVYYCATDFYGWGTRERDAFDIWGQGTLVTVSS", "Reported measurement": 60.6}
{"Binder": "variant 6-22 (Fc fusion) VHH: EVQLVESGGGLVQPGGSLRLSCAASGRTFSEVVMGWFRQAPGKEREFVATIHSSGSTSYADSVKGRFTISADNSKNTAYLQMNSLKPEDTAVYYCVRVTSDYSMDSWGQGTLVTVSS", "Reported measurement": 103}
{"Binder": "variant 5-32 (Fc fusion) VHH: EVQLVESGGGLVQPGGSLRLSCAASGFTPDNYAMGWFRQAPGKEREFVAALGWSGVTTYHYYADSVKGRFTISADNSKNTAYLQMNSLKPEDTAVYYCASDESDAANWGQGTLVTVSS", "Reported measurement": 180}
{"Binder": "variant 6-13 (Fc fusion) VHH: EVQLVESGGGLVQPGGSLRLSCAASGLTFNDYAMGWFRQAPGKEREFVAHIPRSTYSPYYADSVKGRFTISADNSKNTAYLQMNSLKPEDTAVYYCAFLVGPQGVDHGAFDVWGQGTLVTVSS", "Reported measurement": 25.7}
{"Binder": "variant 5-67 (Fc fusion) VHH: EVQLVESGGGLVQPGGSLRLSCAASGFNVNDYAMGWFRQAPGKEREFVAGITSSVGVTNYADSVKGRFTISADNSKNTAYLQMNSLKPEDTAVYYCAADIFFVNWGRGTLVTVSS", "Reported measurement": 1.57}
